# Tested on: Aspergillus fumigatus IFO8868
EXPERIMENTAL READOUT: MIC (µg/mL)

>  <MOLECULE>
CCNC(=O)C(F)(F)C(O)(Cn1cncn1)c1cc(F)ccc1F (stereo not drawn)

>  <MIC (µg/mL)>
25

$$$$
>  <MOLECULE>
CNC(=O)C(F)(F)C(O)(Cn1cncn1)c1ccc(F)cc1Cl (stereo not drawn) [Example 80]

>  <MIC (µg/mL)>
12.5

$$$$
>  <MOLECULE>
O=C(NC1CC1)C(F)(F)C(O)(Cn1cncn1)c1ccccc1Cl (stereo not drawn)

>  <MIC (µg/mL)>
12.5

$$$$

[P] O=C(NC1(c2ccc(Cl)cc2)CC1)C(F)(F)C(O)(Cn1cncn1)c1ccc(F)cc1F (stereo not drawn)
[Q] O=C(Nc1ccc(Cl)cc1)C(F)(F)C(O)(Cn1cncn1)c1ccc(F)cc1F (stereo not drawn)
[R] O=C(NC1CCCC1)C(F)(F)C(O)(Cn1cncn1)c1ccc(F)cc1F (stereo not drawn)
[S] CCNC(=O)C(F)(F)C(O)(Cn1cncn1)c1ccc(F)cc1Cl (stereo not drawn)
Kindly order the items shown according to MIC, from the highest value down. I would appreciate it if you listed the labels in the requested order.
R, Q, P, S
(R: 100 µg/mL, Q: 50 µg/mL, P: 12.5 µg/mL, S: 3.13 µg/mL)

----------
The molecules below have reported MIC for Candida albicans ON28.
EXPERIMENTAL READOUT: MIC (µg/mL)

[a] N#CCc1ccc(NC(=O)C(F)(F)C(O)(Cn2cncn2)c2ccc(F)cc2F)cc1 (centres unmarked)
[b] CNC(=O)C(F)(F)C(O)(Cn1cncn1)c1ccccc1Cl (centres unmarked)
[c] CNC(=O)C(F)(F)C(O)(Cn1cncn1)c1ccc(F)cc1Cl (centres unmarked) [Example 80]
Which order do these items take when sorted by rising MIC? List them. I would appreciate it if you listed the labels in the requested order.
a, c, b
(a: 0.1 µg/mL, c: 0.39 µg/mL, b: 0.78 µg/mL)

[I] CCNC(=O)C(F)(F)C(O)(Cn1cncn1)c1ccc(F)cc1Cl (centres unmarked)
[II] CC1CN(C(=O)C(F)(F)C(O)(Cn2cncn2)c2ccc(F)cc2F)CC(C)O1 (centres unmarked)
Please indicate which entry, I or II , has the lower recorded MIC value. Give the label of your selection.
I

----------
# Test system: Aspergillus fumigatus IFO8868
EXPERIMENTAL READOUT: MIC (µg/mL)

Consider the worked cases shown below.
>  <COMPOUND>
CCNC(=O)C(F)(F)C(O)(Cn1cncn1)c1ccccc1F (stereo not shown)

>  <TEST RESULT>
25

$$$$
>  <COMPOUND>
CC1CN(C(=O)C(F)(F)C(O)(Cn2cncn2)c2ccc(F)cc2F)CC(C)O1 (stereo not shown)

>  <TEST RESULT>
100

$$$$
>  <COMPOUND>
CNC(=O)C(F)(F)C(O)(Cn1cncn1)c1ccc(F)cc1F (single isomer, unassigned) [Example 143]

>  <TEST RESULT>
25

$$$$
>  <COMPOUND>
CCNC(=O)C(F)(F)C(O)(Cn1cncn1)c1ccc(F)cc1F (stereo not shown) [Example 12]

>  <TEST RESULT>
25

$$$$
>  <COMPOUND>
NC(=O)C(F)(F)C(O)(Cn1cncn1)c1ccc(F)cc1Cl (stereo not shown) [Example 79]

>  <TEST RESULT>
50

$$$$

[a] CCNC(=O)C(F)(F)C(O)(Cn1cncn1)c1ccccc1 (stereo not shown)
[b] O=C(NC1CC1)C(F)(F)C(O)(Cn1cncn1)c1ccc(Cl)cc1Cl (stereo not shown)
Please indicate which entry, a or b , has the lower recorded MIC value. Give the label of your selection.
b
(b: 12.5 µg/mL, a: 50 µg/mL)

----------
# Tested on: Aspergillus fumigatus IFO8868
# ASSAY REMARKS: Minimum inhibitory concentration (MIC) against Aspergillus fumigatus IFO8868
# Type: cell-based
# SETUP CONDITIONS: IFO8868, 72 h, TC broth medium, 10^4 spores/ml, 37° C., 3 days
EXPERIMENTAL READOUT: MIC (µg/mL)

Consider the worked cases shown below.
>  <MOLECULE>
CC(C)CNC(=O)C(F)(F)C(O)(Cn1cncn1)c1ccc(F)cc1F (centres unmarked)

>  <MIC / µg/mL>
25

$$$$
>  <MOLECULE>
CNC(=O)C(F)(F)C(O)(Cn1cncn1)c1ccccc1Cl (centres unmarked)

>  <MIC / µg/mL>
12.5

$$$$
>  <MOLECULE>
CC(C)(C)NC(=O)C(F)(F)C(O)(Cn1cncn1)c1ccc(F)cc1F (centres unmarked)

>  <MIC / µg/mL>
12.5

$$$$
>  <MOLECULE>
CCNC(=O)C(F)(F)C(O)(Cn1cncn1)c1ccc(Cl)cc1F (centres unmarked)

>  <MIC / µg/mL>
25

$$$$

[I] CCNC(=O)C(F)(F)C(O)(Cn1cncn1)c1cc(F)c(F)cc1F (centres unmarked)
[II] CCCNC(=O)C(F)(F)C(O)(Cn1cncn1)c1ccc(F)cc1F (centres unmarked)
Please indicate which entry, I or II , has the lower recorded MIC value. Give the label of your selection.
II

----------
# Test system: Aspergillus fumigatus IFO8868
EXPERIMENTAL READOUT: MIC (µg/mL)

>  <COMPOUND>
COc1ccccc1NC(=O)C(F)(F)C(O)(Cn1cncn1)c1ccc(F)cc1F (centres unmarked) [Example 45]

>  <SYSTEM UNDER TEST>
Aspergillus fumigatus IFO8868

>  <SCALE UNIT>
µg/mL

>  <MIC>
50

$$$$
>  <COMPOUND>
O=C(NC1CC1)C(F)(F)C(O)(Cn1cncn1)c1ccc(F)cc1Cl (single isomer, unassigned) [Example 148]

>  <SYSTEM UNDER TEST>
Aspergillus fumigatus IFO8868

>  <SCALE UNIT>
µg/mL

>  <MIC>
3.13

$$$$
>  <COMPOUND>
CC(C)NC(=O)C(F)(F)C(O)(Cn1cncn1)c1ccc(F)cc1F (centres unmarked) [Example 33]

>  <SYSTEM UNDER TEST>
Aspergillus fumigatus IFO8868

>  <SCALE UNIT>
µg/mL

>  <MIC>
50

$$$$

[I] C=CCNC(=O)C(F)(F)C(O)(Cn1cncn1)c1ccc(F)cc1F (centres unmarked) [Example 17]
[II] NC(=O)C(F)(Cc1ccccc1)C(O)(Cn1cncn1)c1ccc(F)cc1F (centres unmarked) [Example 56]
Of the two listed items, I and II , which carries the larger MIC figure? Give the label of your selection.
II

----------
# System: Candida albicans ON28
EXPERIMENTAL READOUT: MIC (µg/mL)

>  <COMPOUND>
O=C(NC1CC1)C(F)(F)C(O)(Cn1cncn1)c1ccc(Cl)cc1Cl (stereo not shown) [Example 85]

>  <SYSTEM UNDER TEST>
Candida albicans ON28

>  <EXPERIMENTAL READOUT>
MIC

>  <SCALE UNIT>
µg/mL

>  <TEST RESULT>
0.1

$$$$
>  <COMPOUND>
O=C(Nc1ccc(C(F)(F)F)cc1)C(F)(F)C(O)(Cn1cncn1)c1ccc(F)cc1F (stereo not shown) [Example 136]

>  <SYSTEM UNDER TEST>
Candida albicans ON28

>  <EXPERIMENTAL READOUT>
MIC

>  <SCALE UNIT>
µg/mL

>  <TEST RESULT>
0.025

$$$$
>  <COMPOUND>
COc1ccc(NC(=O)C(F)(F)C(O)(Cn2cncn2)c2ccc(F)cc2F)cc1 (stereo not shown) [Example 139]

>  <SYSTEM UNDER TEST>
Candida albicans ON28

>  <EXPERIMENTAL READOUT>
MIC

>  <SCALE UNIT>
µg/mL

>  <TEST RESULT>
0.05

$$$$
>  <COMPOUND>
O=C(NC1CC1)C(F)(F)C(O)(Cn1cncn1)c1ccc(F)cc1Cl (single isomer, unassigned) [Example 148]

>  <SYSTEM UNDER TEST>
Candida albicans ON28

>  <EXPERIMENTAL READOUT>
MIC

>  <SCALE UNIT>
µg/mL

>  <TEST RESULT>
0.1

$$$$
>  <COMPOUND>
NC(=O)C(F)(F)C(O)(Cn1cncn1)c1ccc(F)cc1Cl (stereo not shown) [Example 79]

>  <SYSTEM UNDER TEST>
Candida albicans ON28

>  <EXPERIMENTAL READOUT>
MIC

>  <SCALE UNIT>
µg/mL

>  <TEST RESULT>
0.78

$$$$
>  <COMPOUND>
CNC(=O)C(F)(F)C(O)(Cn1cncn1)c1ccc(F)cc1Cl (single isomer, unassigned) [Example 147]

>  <SYSTEM UNDER TEST>
Candida albicans ON28

>  <EXPERIMENTAL READOUT>
MIC

>  <SCALE UNIT>
µg/mL

>  <TEST RESULT>
0.1

$$$$
>  <COMPOUND>
O=C(NC1CC1)C(F)(F)C(O)(Cn1cncn1)c1ccc(F)cc1F (stereo not shown) [Example 19]

>  <SYSTEM UNDER TEST>
Candida albicans ON28

>  <EXPERIMENTAL READOUT>
MIC

>  <SCALE UNIT>
µg/mL

>  <TEST RESULT>
0.1

$$$$

[P] CCNC(=O)C(F)(F)C(O)(Cn1cncn1)c1cc(F)c(F)cc1F (stereo not shown) [Example 88]
[Q] CC(C)(C)NC(=O)C(F)(F)C(O)(Cn1cncn1)c1ccc(F)cc1F (stereo not shown) [Example 51]
Of the two listed items, P and Q , which carries the larger MIC figure? Give the label of your selection.
P
(P: 0.2 µg/mL, Q: 0.1 µg/mL)
